System: XF 498 CNS
Test: NCI tumour cell line growth inhibition, 48 h
// values below are reported TGI

- CCOC(=O)CCc1c(C)c2c(OC)cc(OC)cc2oc1=O: 93.8 µM

Request: TGI, test system XF 498 CNS, entry CC(=O)Oc1ccc2c(=O)c(C(C)=O)coc2c1
> 100 µM

Request: TGI, test system XF 498 CNS, entry CCCCCCCCCCCCCCCCCCN(C)CC(COC)OP(=O)([O-])OCC[N+](C)(C)C (configuration not stated)
16.8 µM

Fill in the recorded TGI for this compound, with XF 498 CNS as test system: C#CN1C(=O)c2c(c(-c3ccccc3)c(-c3ccc(Oc4ccc(-c5c(-c6ccccc6)c6c(c(-c7ccccc7)c5-c5ccccc5)C(=O)N(C#C)C6=O)cc4)cc3)c(-c3ccccc3)c2-c2ccccc2)C1=O
72.8 µM

Please provide the recorded TGI for Cc1[nH]c(=O)n2c(C)nnc2c1C(=O)O , tested on XF 498 CNS.
> 100 µM

What TGI appears in the records for this compound with XF 498 CNS? CC1CC(C)(O)C2C3(C)CCCC2(COC3=O)C12CCC1(CCOC1=O)O2 (configuration not stated)
> 39.6 µM

Request body: readout TGI, system XF 498 CNS, query CN(C)CC1(Cc2ccccc2)CC/C(=C\c2ccccc2)C1=O (configuration not stated) . Return the value.
> 100 µM

Report TGI for CCN(N=O)C1C2(CCCC2)NC(=O)C12CCCC2 (configuration not stated) tested on XF 498 CNS.
> 100 µM

Look up TGI with XF 498 CNS for this compound: O=C(O)C1=C(CO)Oc2cc3c(cc2C1c1ccc2c(c1)OCO2)OCO3 (configuration not stated)
> 100 µM

Can you look up TGI on XF 498 CNS for COc1cc(C2C(C(=O)NCc3ccccc3)=C(C)NC(C)=C2C(=O)NCc2ccccc2)ccc1O ?
> 100 µM

Look up TGI with XF 498 CNS for this compound: CCOC(=O)C(C(=O)OCC)=C1C=C(c2ccccc2)c2ccccc21
> 100 µM

Observed TGI on XF 498 CNS for CC(=O)OCc1nnn2c1C(OC(C)=O)CC2 (configuration not stated) , please.
> 100 µM

###

System: TK-10 renal
Assay: NCI tumour cell line growth inhibition, 48 h
parameter: TGI

Sample answers from the record:
- COc1ccc(-c2nc3sccn3c2-c2ccnc(NCCNS(=O)(=O)c3ccc(C(F)(F)F)cc3)n2)cc1: > 100 µM
- CC1(C)CC[C@]23CC[C@]4(C)[C@H](CC[C@@H]5[C@@]6(C)CCCNC(C)(C)[C@@H]6CC[C@]54C)[C@H]2[C@H]1OC3: 3.61 µM
- C/C=C\C1OC1(C)c1cc(=O)c2c(C)cc3c(c2o1)C(=O)c1c(O)c(C2CC(C)(N(C)C)C(OC(C)=O)C(C)O2)cc(C2CC(N(C)C)C(O)C(C)O2)c1C3=O (centres undefined): 1.47 µM
- C=CC(C)(C)NC(C(=O)N1CCC[C@H]1c1nc(-c2nc(C(=O)OCC=C(C)C)c(C)o2)c(C)o1)C(C)C (some centres undefined): > 100 µM
- Nc1c(C(=O)Nc2cccc(Cl)c2)sc2nc3c(cc12)C(O)CCC3 (centres undefined): 36.8 µM

I have this compound here, CCOC(=O)c1sc2nc(SC)nc3c2c1NC(=O)CN3c1ccc(F)cc1 , and I need its recorded TGI.
> 100 µM

Suppose we examine the compound Cc1nn(CNc2ccc(F)c(Cl)c2)c(=S)n1/N=C/c1ccc(-c2ccc(Cl)cc2Cl)o1 ; what TGI value has been reported?
28.9 µM
